Data origin: ChEMBL document CHEMBL1153877

- System: Salmonella typhimurium
- EXPERIMENT NOTES: Induction of mutagenicity in Salmonella Typhimurium TA100 assessed as number of revertant per nmol after 48 hrs
- Format: toxicity, organism-based
- COND: salmonella enterica subsp. enterica serovar typhimurium
Recorded Activity values for a group of compounds are listed next.
# answer = number (no unit)

Cn1cnc(CS(=O)(=O)c2ccccc2)c1[N+](=O)[O-]; 14.32
Cc1ccc(S(=O)(=O)Cc2ncn(C)c2[N+](=O)[O-])cc1; 20.59
Cc1nc(CS(=O)(=O)c2ccc(Cl)cc2)c([N+](=O)[O-])n1C; 2.36

// Activity lookup, key: Cc1nc(CS(=O)(=O)c2ccc(Br)cc2)c([N+](=O)[O-])n1C
6.59

What do we get for Cc1nc(CS(=O)(=O)c2ccc(Cl)cc2)c([N+](=O)[O-])n1CCO ?
2.24

Now try Cc1nc(CS(=O)(=O)c2ccc(F)cc2)c([N+](=O)[O-])n1C .
1.48

Now consider Cc1ccc(S(=O)(=O)Cc2nc(C)n(CCO)c2[N+](=O)[O-])cc1 .
1.57

Another compound to look at: Cn1cnc(CS(=O)(=O)c2ccc(Br)cc2)c1[N+](=O)[O-]
14.92

Try this compound too: Cc1nc(CS(=O)(=O)c2ccc(Br)cc2)c([N+](=O)[O-])n1CCO
1.1

* * *

Each entry below carries its recorded Activity.
- System: Salmonella typhimurium
- EXPERIMENT NOTES: Induction of mutagenicity in Salmonella Typhimurium TA100 assessed as number of revertant per ug after 48 hrs
- Assay type: toxicity, organism-based
- COND: salmonella enterica subsp. enterica serovar typhimurium

Worked set:
Cn1cnc(CS(=O)(=O)c2ccc(F)cc2)c1[N+](=O)[O-]; 35.17
Cc1nc(CS(=O)(=O)c2ccc(Cl)cc2)c([N+](=O)[O-])n1CC(C)O (configuration not stated); 2.18
Cc1nc(CS(=O)(=O)c2ccccc2)c([N+](=O)[O-])n1CCO; 1.72
Cc1nc(CS(=O)(=O)c2ccc(Br)cc2)c([N+](=O)[O-])n1C; 17.61
Cc1ncc([N+](=O)[O-])n1C; 153.8
Cc1ncc([N+](=O)[O-])n1CC(C)O (configuration not stated); 25.74
Cc1ccc(S(=O)(=O)Cc2nc(C)n(CCO)c2[N+](=O)[O-])cc1; 4.62
Cn1cnc(CS(=O)(=O)c2ccccc2)c1[N+](=O)[O-]; 50.91
Cc1nc(CS(=O)(=O)c2ccc(Br)cc2)c([N+](=O)[O-])n1CCO; 2.73
Cc1ccc(S(=O)(=O)Cc2nc(C)n(CC(C)O)c2[N+](=O)[O-])cc1 (configuration not stated); 2.07

Dear colleague, I am looking for the recorded Activity of the following molecule: Cn1cncc1[N+](=O)[O-]
121.79

Same question for Cc1ccc(S(=O)(=O)Cc2nc(C)n(C)c2[N+](=O)[O-])cc1 please.
15.03

Now consider Cc1nc(CS(=O)(=O)c2ccccc2)c([N+](=O)[O-])n1CC(C)O (configuration not stated) and answer again.
2.58

Similarly, Cc1ccc(S(=O)(=O)Cc2ncn(C)c2[N+](=O)[O-])cc1 ?
69.71

* * *

- Test system: THP-1
- EXPERIMENT NOTES: Cytotoxicity against human THP1 cells after 72 hrs by propidium iodide-based flow cytometry
- Assay type: cell-based
- COND: THP-1, 72 h
ENDPOINT LABEL: IC50

Solved cases below.
Cc1nc(CS(=O)(=O)c2ccc(F)cc2)c([N+](=O)[O-])n1C; > 797 µM
Cc1ncc([N+](=O)[O-])n1CC(C)O (stereo unspecified); > 1350 µM

What is its IC50 for THP-1? Entry: Cc1nc(CS(=O)(=O)c2ccccc2)c([N+](=O)[O-])n1CCO
> 768 µM

Next compound: Cn1cnc(CS(=O)(=O)c2ccc(Cl)cc2)c1[N+](=O)[O-]
174 µM

// query: Cn1cnc(CS(=O)(=O)c2ccc(Br)cc2)c1[N+](=O)[O-]
> 694 µM

Proceed to Cn1cnc(CS(=O)(=O)c2ccc(F)cc2)c1[N+](=O)[O-]
> 835 µM

* * *

- System: Salmonella typhimurium
- EXPERIMENT NOTES: Induction of mutagenicity in Salmonella Typhimurium TA100 assessed as number of revertant per nmol after 48 hrs relative to metranidazole
- Format: toxicity, organism-based
- COND: salmonella enterica subsp. enterica serovar typhimurium
// label = class 1 if Activity is not less than 1, otherwise class 0

# count of solved cases: 5
Cc1ccc(S(=O)(=O)Cc2nc(C)n(CCO)c2[N+](=O)[O-])cc1; class 0
Cc1ncc([N+](=O)[O-])n1CC(C)O (stereo unspecified); class 0
Cn1cnc(CS(=O)(=O)c2ccc(Cl)cc2)c1[N+](=O)[O-]; class 1
Cn1cnc(CS(=O)(=O)c2ccc(F)cc2)c1[N+](=O)[O-]; class 1
Cn1cnc(CS(=O)(=O)c2ccc(Br)cc2)c1[N+](=O)[O-]; class 1

Determine whether this compound has Activity no lower than 1: Cc1nc(CS(=O)(=O)c2ccc(Cl)cc2)c([N+](=O)[O-])n1C
class 0

Also need Cc1nc(CS(=O)(=O)c2ccc(Cl)cc2)c([N+](=O)[O-])n1CC(C)O (stereo unspecified) , thanks.
class 0

How about this compound: Cn1cncc1[N+](=O)[O-]
class 1

Note, next up: Cc1ccc(S(=O)(=O)Cc2nc(C)n(CC(C)O)c2[N+](=O)[O-])cc1 (stereo unspecified)
class 0

Next: Cc1nc(CS(=O)(=O)c2ccc(F)cc2)c([N+](=O)[O-])n1CCO
class 0

Please give the result for Cc1nc(CS(=O)(=O)c2ccc(Cl)cc2)c([N+](=O)[O-])n1CCO too.
class 0

* * *

- Test system: THP-1
- EXPERIMENT NOTES: Cytotoxicity against human THP1 cells after 72 hrs by propidium iodide-based flow cytometry
- Format: cell-based
- COND: THP-1, 72 h
Just a reminder that ties go to Not satisfied: only IC50 strictly below 200 µM counts as Satisfied.

Cn1cncc1[N+](=O)[O-]; Not satisfied
Cc1ccc(S(=O)(=O)Cc2nc(C)n(CC(C)O)c2[N+](=O)[O-])cc1 (stereo not drawn); Not satisfied
Cc1nc(CS(=O)(=O)c2ccc(Br)cc2)c([N+](=O)[O-])n1CC(C)O (stereo not drawn); Satisfied
Cc1ccc(S(=O)(=O)Cc2nc(C)n(CCO)c2[N+](=O)[O-])cc1; Satisfied
Cc1nc(CS(=O)(=O)c2ccc(Cl)cc2)c([N+](=O)[O-])n1CC(C)O (stereo not drawn); Not satisfied
Cc1nc(CS(=O)(=O)c2ccc(Cl)cc2)c([N+](=O)[O-])n1C; Satisfied
Cc1nc(CS(=O)(=O)c2ccccc2)c([N+](=O)[O-])n1CC(C)O (stereo not drawn); Not satisfied
Cc1ncc([N+](=O)[O-])n1C; Not satisfied

Dear reviewer, please state whether Cc1nc(CS(=O)(=O)c2ccc(Cl)cc2)c([N+](=O)[O-])n1CCO has IC50 strictly beneath 200 µM.
Not satisfied

Do the same for Cc1nc(CS(=O)(=O)c2ccc(Br)cc2)c([N+](=O)[O-])n1CCO please
Satisfied

Next up: Cc1ncc([N+](=O)[O-])n1CCO
Not satisfied

Param item: Cc1nc(CS(=O)(=O)c2ccc(F)cc2)c([N+](=O)[O-])n1CCO
Not satisfied

Then this compound: Cn1cnc(CS(=O)(=O)c2ccccc2)c1[N+](=O)[O-]
Not satisfied

Now consider Cc1ccc(S(=O)(=O)Cc2ncn(C)c2[N+](=O)[O-])cc1 .
Not satisfied

Note, next up: Cc1nc(CS(=O)(=O)c2ccccc2)c([N+](=O)[O-])n1C
Not satisfied

Now the same for Cc1nc(CS(=O)(=O)c2ccc(F)cc2)c([N+](=O)[O-])n1CC(C)O (stereo not drawn)
Not satisfied

Can you handle Cc1nc(CS(=O)(=O)c2ccc(Br)cc2)c([N+](=O)[O-])n1C next?
Not satisfied

Note, next up: Cc1ccc(S(=O)(=O)Cc2nc(C)n(C)c2[N+](=O)[O-])cc1
Not satisfied

* * *

- Tested on: Salmonella typhimurium
- EXPERIMENT NOTES: Induction of mutagenicity in Salmonella Typhimurium YG1042 assessed as number of revertant per ug after 48 hrs
- Assay type: toxicity, organism-based
- COND: salmonella enterica subsp. enterica serovar typhimurium
// classify: if (Activity < 100) Satisfied else Not satisfied

Past entries and their recorded results:
Cc1nc(CS(=O)(=O)c2ccc(F)cc2)c([N+](=O)[O-])n1C; Satisfied
Cn1cnc(CS(=O)(=O)c2ccccc2)c1[N+](=O)[O-]; Not satisfied
Cc1ncc([N+](=O)[O-])n1C; Not satisfied
Cc1nc(CS(=O)(=O)c2ccccc2)c([N+](=O)[O-])n1CC(C)O (configuration not stated); Satisfied
Cc1ccc(S(=O)(=O)Cc2nc(C)n(CCO)c2[N+](=O)[O-])cc1; Satisfied
Cn1cnc(CS(=O)(=O)c2ccc(F)cc2)c1[N+](=O)[O-]; Not satisfied

Could you please tell me whether Activity recorded for Cc1nc(CS(=O)(=O)c2ccc(Cl)cc2)c([N+](=O)[O-])n1CCO is less than 100?
Satisfied

Would you mind doing Cc1nc(CS(=O)(=O)c2ccc(Cl)cc2)c([N+](=O)[O-])n1C as well?
Satisfied
